Reference source: patent US20190127480A1

- target or test system: T1, Soluble heterodimeric CD3 protein (hCD3-epsilon/hCD3-delta) with either a human Fc tag (hFcΔAdp/hFc) or a … (human, UniProt P07766 23-126; P04234 22-105)
- T1 construct: also called hCD3ε/δ; not shown: Fc tag: human (hFcΔAdp/hFc)
- T1 sequence (P07766 23-126 limits assumed, stated change not applied, chain 1 of 2): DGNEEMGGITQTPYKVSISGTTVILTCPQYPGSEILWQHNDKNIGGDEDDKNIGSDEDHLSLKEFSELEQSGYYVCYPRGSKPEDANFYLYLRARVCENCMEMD
- T1 sequence (P04234 22-105 limits assumed, stated change not applied, chain 2 of 2): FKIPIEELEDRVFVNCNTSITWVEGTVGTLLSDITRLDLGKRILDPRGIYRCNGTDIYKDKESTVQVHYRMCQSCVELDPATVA
- procedure summary: SPR Biacore 25C antigen-capture
# koff annotations

Use the examples below as a reference point.
binder="H2M2774N (antibody, mouse IgG2, V domains shown, H2M: mouse IgG2 Fc, human variable regions; divalent) VH: QVQLVESGGGVVQPGRSLRLSCVASGFTFRSYGMHWVRQAPGKGLQWVAMIYYDGKNKYYADSVRGRFTISRDNSKNTLYLQMNSLRAEDTAMYFCARGPGYNWLDPWGQGTLVTVSS VL: EIVMTQSPATLSVSPGERATLSCRASQRISSNLAWYQQKPGQAPRLLIYGASTRATGSPARFSGSGSGTEFTLTISSLQSEDVAVYYCQQHNNWPLTFGGGTKVEIK" result_value="0.000336 s⁻¹"
binder="H2M2708N (antibody, mouse IgG2, V domains shown, H2M: mouse IgG2 Fc, human variable regions; divalent) VH: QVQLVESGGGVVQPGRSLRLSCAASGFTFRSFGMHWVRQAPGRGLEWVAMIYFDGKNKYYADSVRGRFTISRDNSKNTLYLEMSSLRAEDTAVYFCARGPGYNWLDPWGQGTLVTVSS VL: EIVMTQSPATLSVSPGERVTLSCRASQSISRNLAWYQQKPGQAPRLLIYGASTRATGVPARFSGSGSGTEFTLTISSLQSEDFAVFHCQQYNNRPLTFGGGTEVEIK" result_value="0.000227 s⁻¹"
binder="H1H5778P (antibody, human IgG1, V domains shown, H1H: human IgG1 Fc; divalent) VH: EVQLVESGGGLVQPGRSLRLSCVASGFTFADFTMHWVRQAPGKGLEWVSGISWNSNSIDYADSVKGRFTISRDNAKKSLFLQMSSLRAEDTALYYCVKDRSGYSRFYYGMDVWGQGTTVTVSS VL: EIVMTQSPATLSVSPGERAILSCRASQNINSNLAWYQQKPGQAPRLLIYGASTRATGVPARFSGSGSGTEFTLTIRSLQSEDFAVYYCQQYYNWPITFGHGTRLEIK" result_value="3.42e-05 s⁻¹"
binder="H1H5756B (antibody, human IgG1, V domains shown, H1H: human IgG1 Fc; divalent) VH: EVQLVESGGGVVQPGRSLRLSCTASGFPFSRYGMHWVRQAPGKGLEWVTFIWYDGSNKYYADSAKGRFTITRDNSKNTVYLQMDSLRADDTAVYYCVRDQAALYYFDSWGQGTLVTVSS VL: DIQMTQSPSSVSASVGDRVTITCRASQGISRWLAWYQQKPGKAPKLLISAASSLQSGVPSRFSGSGSGTDFTLTISGLQPEDFATYYCQKANSFPFTFGPGTKLEIKR" result_value="0.000111 s⁻¹"
binder="H1H5788P (antibody, V domains shown, H1H: human IgG1 Fc; divalent) VH: EVQLVESGGGLVQPGRSLRLSCAASGFTFDDYTMHWVRQAPGKGLEWVSGISWNSGSIGYADSVKGRFTISRDNAKNSLYLQMNSLRAEDTALFYCAKDQSGYGHYYYGMDVWGQGTTVTVSS VL: EIVMTQSPATLSVSPGERATLSCRASQSVSSNLAWYQQKPGQAPRLLIYGASTRATDIPARFSGSGSGTEFTLTISSLQSEDFAVYHCQQYNNWPLTFGGGTKVEIK" result_value="0.000164 s⁻¹"

For reference, reported koff for H2M3540N (antibody, mouse IgG2, V domains shown, H2M: mouse IgG2 Fc, human variable regions; divalent) VH: QVHLEESGGGVVQPGRSLRLSCSASGFTFSSYAMHWVRQAPGKGLEWVAVIWYDGTNKYYLDSVKGRFTISRDNSKNTLFLQMNSLRAEDTAVYYCARDRGSIITHWGQGTLVTVSS VL: DIQMTQSPSSLSASIGDRVTITCRASQNISSYLNWYQQKPGKAPKLLIYAASSLQSGVPSRFSGSGSGTDFTLTISSLQPEDFATYYCQQTYSTPPITFGQGTRLEIK stands at 0.000587 s⁻¹

Just so you know, measured koff for H2M2885N (antibody, mouse IgG2, V domains shown, H2M: mouse IgG2 Fc, human variable regions; divalent) VH: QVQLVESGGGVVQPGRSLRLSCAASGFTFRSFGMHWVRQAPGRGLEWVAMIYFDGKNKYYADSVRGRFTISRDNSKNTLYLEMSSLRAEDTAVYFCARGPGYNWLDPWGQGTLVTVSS VL: EIVMTQSPATLSVSPGERVILSCRASQSISRNLAWYQQKPGQAPRLLIYGATTRATGVPARFSGSGSGTEFTLTISSLQSEDFAVFYCQQYNNRPLTFGGGTEVEIK came out at 0.000152 s⁻¹
